B1: SFRS1 (parent)
chain: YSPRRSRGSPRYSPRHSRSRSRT

- Variants of: B1
- Test details: protein stability index of a GFP-peptide fusion (GPS, HEK-293T) (PSI 1-6); higher = more stable;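 note: lentivirally expressed fusions sorted by FACS into six bins by GFP to DsRed ratio, PSI derived from sequencing read proportions per bin multiplied by bin number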
- Condition context: c terminus: native
Test readout: protein stability index
Answers are plain numbers.

Before answering, review these 5 worked examples.
| Seq text | Measured value |
| --- | --- |
| YSPRTSRGSPRYSPRHSRSRSRT | 2.8 |
| YSPRASRGSPRYSPRHSRSRSRT | 3.98 |
| YSPRRSRGSPRYSPRHSRRRSRT | 3.55 |
| YSPRRSRGSPRYSPRHSRSRSLT | 4.25 |
| YSPRRSRGSPRYSPRHSRSRFRT | 3.95 |

Need protein stability index for each of these variants.
1. YSFRRSRGSPRYSPRHSRSRSRT
2. YSPRRSRGSPRYSKRHSRSRSRT
3. YSPRRSRGSPRYSPRHSYSRSRT
4. YSTRRSRGSPRYSPRHSRSRSRT
5. YSPRRSRGSPRYSPRHNRSRSRT
6. YSPRRSRSSPRYSPRHSRSRSRT

1: 3.91; 2: 4.57; 3: 3.07; 4: 4.22; 5: 3.81; 6: 4.32

Need protein stability index for each of these variants.
1. YSPRRSRGSPRHSPRHSRSRSRT
2. YSPRRSRGSPRVSPRHSRSRSRT
3. YSPRRERGSPRYSPRHSRSRSRT
4. YSPRRSRGSPRYSPRHSRSRVRT

1. 3.28
2. 4.18
3. 3.26
4. 3.49

Need protein stability index for each of these variants.
1. YSPRRSRGSPRYSNRHSRSRSRT
2. YSPRRSLGSPRYSPRHSRSRSRT
3. YSPRRSRGSPRYPPRHSRSRSRT
4. YSPRRSRGSPRYSPRHARSRSRT
5. YSPRRSRGSPRYCPRHSRSRSRT
6. YSPRRSRGSPRYSPRHSRVRSRT
7. YSPRRCRGSPRYSPRHSRSRSRT
8. YSPRRWRGSPRYSPRHSRSRSRT

1. 4.28
2. 2.03
3. 3.55
4. 4.15
5. 1.35
6. 3.73
7. 2.81
8. 3.43

Need protein stability index for each of these variants.
1. YSPRRSRGNPRYSPRHSRSRSRT
2. YSPRRSRGSPRYSPRTSRSRSRT
3. YSPRRSRGSPRYSPRHSRSRSRQ
4. YSPRRSRGSPRYSPYHSRSRSRT
5. YSPRRSRGSHRYSPRHSRSRSRT

1. 4.23
2. 4.27
3. 2.61
4. 3.06
5. 4.38

Need protein stability index for each of these variants.
1. YSPRKSRGSPRYSPRHSRSRSRT
2. YDPRRSRGSPRYSPRHSRSRSRT
3. YSPRSSRGSPRYSPRHSRSRSRT

1. 3.14
2. 4.09
3. 3.76

Need protein stability index for each of these variants.
1. YSPRRSRGSPRYSPEHSRSRSRT
2. YHPRRSRGSPRYSPRHSRSRSRT
3. YSPRRSRGYPRYSPRHSRSRSRT
4. YSPRRSRGSPRYSPRASRSRSRT
5. YSKRRSRGSPRYSPRHSRSRSRT

1: 3.56; 2: 2.75; 3: 3.43; 4: 4.81; 5: 3.56

Just for reference, the supplement of paper PMC10567573 is where these values come from.
